Taken from the supplement of paper PMC8728848.

Give measured glycan array binding signal (z-score) for each item. Keep answers brief.
tested_system: Fuc(a1-2)[GalNAc(a1-3)]Gal(b1-3)GlcNAc(b1-6)GalNAc
experiment_description: glycan array binding signal (z-score within array); higher = stronger binding
condition_description: glycan notation: IUPAC condensed, linker removed
The entries come from a sample that favours the strongest signals as a whole.
Could you respond with only the numeric value?

Ask: Give the measured glycan array binding signal (z-score) for SUN4 (Saccharomyces cerevisiae), P53616 (protein) MGSSHHHHHHSSGLVPRGSHNGSIYGDLADFSGPYEKFEDGTIPCGQFPSGQGVIPISWLDEGGWSGVENTDTSTGGSCKEGSYCSYACQPGMSKTQWPSDQPSDGRSIGGLLCKDGYLYRSNTDTDYLCEWGVDAAYVVSELSNDVAICRTDYPGTENMVIPTYVQAGDSLPLTVVDQDTYYTWQGLKTSAQYYVNNAGISVEDACVWGSSSSGVGNWAPLNFGAGSSDGVAYLSLIPNPNNGNALNFNVKIVAADDSSTVNGECIYENGSFSGGSDGCTVSVTAGKAKFVLYN
Result: -0.525

Ask: # return recorded glycan array binding signal (z-score) for input RobpsCRA (Robinia pseudoacacia) (protein) IKGGYWYSGSGLAVSDINPSHFTHLFCAFADLDPNTNKLTISSSNAAAFSTFTQTVRAKNPSVKTLLSIGGGGGRALAAVFANMASQASRRKSFIDSSIQLARRNNFHGLDLDWEYPSSDIDKTNFASLIREWRAAVATESSTSGTPALLLSAAVGGSDQITPLKYYPGEAIANNLDWVNVMTYDLYTSDSYPTLTQPPAPLFYPRGIFSADEGITKWIQSGVPESKLALGLPFYGFKWRLSDPNNHGLFAPATQGLGAVKYKDIVNTGGQVEFDSTYVTNYCFKGTDWYGYDDTQSISAKVAYAKQRGLFGYFAWHIEQDSNWALS
Result: -0.584
